target: human SLC6A19 and TMEM27 (Homo sapiens, UniProt Q695T7)
Construct: expressed in transfected cells
Sequence (Q695T7 1-634): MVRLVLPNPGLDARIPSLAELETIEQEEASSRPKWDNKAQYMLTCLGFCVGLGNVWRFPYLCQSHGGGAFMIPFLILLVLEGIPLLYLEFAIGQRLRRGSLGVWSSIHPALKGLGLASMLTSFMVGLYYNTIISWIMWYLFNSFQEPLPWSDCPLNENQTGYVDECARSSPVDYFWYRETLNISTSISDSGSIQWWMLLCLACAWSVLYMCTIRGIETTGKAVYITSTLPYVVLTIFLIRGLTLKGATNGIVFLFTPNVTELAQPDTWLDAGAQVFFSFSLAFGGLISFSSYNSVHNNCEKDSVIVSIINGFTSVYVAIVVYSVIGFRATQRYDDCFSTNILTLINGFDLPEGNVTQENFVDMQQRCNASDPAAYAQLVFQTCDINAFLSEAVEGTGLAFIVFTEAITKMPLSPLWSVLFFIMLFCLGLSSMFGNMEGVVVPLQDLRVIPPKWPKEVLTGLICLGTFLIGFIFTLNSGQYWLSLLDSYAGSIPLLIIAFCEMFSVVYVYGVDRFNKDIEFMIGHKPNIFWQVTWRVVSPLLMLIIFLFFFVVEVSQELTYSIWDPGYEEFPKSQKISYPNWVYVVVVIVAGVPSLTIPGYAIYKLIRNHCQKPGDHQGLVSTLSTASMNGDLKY
Sequence (Q9HBJ8 15-222 partner): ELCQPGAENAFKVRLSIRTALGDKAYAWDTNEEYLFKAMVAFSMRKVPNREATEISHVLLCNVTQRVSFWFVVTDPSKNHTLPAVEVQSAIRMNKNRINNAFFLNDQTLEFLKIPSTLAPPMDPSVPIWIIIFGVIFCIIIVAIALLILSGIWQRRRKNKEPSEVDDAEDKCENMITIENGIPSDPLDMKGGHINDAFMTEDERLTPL
testProtocol: Radiolabelled (3H) leucine uptake in CHO cells with doxycycline-inducible expression of human SLC6A19 and TMEM27 (Example B-1)
Type: cell-based
conditionSet: CHO cells with doxycycline-inducible expression of human SLC6A19 and TMEM27, read-out: SLC6A19_Radioligand Uptake Assay IC50
pIC50: −log10 of the molar value.
observable: pIC50

> print(dat)
                                   compound  experimentalresult
1  O=C(NCc1[nH]c2cc(OCc3cscn3)c(Cl)cc2c1Cl)N1CCC1 [Compound 474]                6.26
2  O=C(NCc1cc2cc(Cl)c(OCc3cscn3)cc2[nH]1)C1CC12CC2 (stereo not shown) [Compound 553]                6.47

(1) O=C(CC(F)(F)F)NCc1cc2cc(F)c(OCc3cscn3)cc2[nH]1 [Compound 568]
(2) CC(=O)NCc1cc2cc(Cl)c(OCc3cc(C)on3)cc2[nH]1 [Compound 142]
(3) CC1(C(=O)NCc2cc3cc(OC(F)(F)F)c(CCc4cscn4)cc3[nH]2)CC1 [Compound 509]
(4) Cc1coc(COc2cc3[nH]c(CNC(=O)C4(C)CC4)cc3cc2Cl)n1 [Compound 71]
Qu. Falling order of pIC50, please. Put the labels in the requested order and write them down.
Ans. 2, 4, 1, 3
(2: 7.16, 4: 6.95, 1: 6.47, 3: 5.82)
